All values here come from paper PMC12040169.

Exercise: state measured viability at 28.5 h, 10 µM for each of the molecules provided.
Test: in vitro
Settings: human, hela cells, % viability
Quick reminder: number only, in %, skip the unit.

Hello, please tell me recorded viability at 28.5 h, 10 µM for this one: Cc1cc(C)c2nc(NC(=O)c3ccc(=O)n(CC(=O)N(C)c4ccccc4)c3)sc2c1
91.5

Answer with reported viability at 28.5 h, 10 µM of Nc1cccc2c1C(=O)N(c1ccccc1C(=O)O)C2=O
94

Name the recorded viability at 28.5 h, 10 µM of the molecule listed here: CC(=O)Nc1ccc(Nc2cc(-c3ccco3)ncn2)cc1
100

Give viability at 28.5 h, 10 µM for CC(=O)Nc1ccc(CNc2ccc(Cl)cc2)cc1
104

Return the recorded viability at 28.5 h, 10 µM value; entry: CCOC(=O)c1c(C)oc2ccc(OCC(=O)c3ccc(Br)cc3)cc12
92.4

Hello, please tell me recorded viability at 28.5 h, 10 µM for this one: O=C(O)CCN1CCN(S(=O)(=O)c2cccc([N+](=O)[O-])c2)CC1
89.7

Recall and state the measured viability at 28.5 h, 10 µM for Clc1ccc(CSCCn2cccc2)cc1 .
92

Let me know recorded viability at 28.5 h, 10 µM for Nc1nc(=O)c2cnc3ccc(Cl)cc3c2s1 , thanks.
84.6

Quickly give me recorded viability at 28.5 h, 10 µM for CC(C)(C)OC(=O)N(c1cncc(N2CCNCC2)n1)[C@@H]1CCOc2ccccc21 [CBK172251G]
109

Return value of viability at 28.5 h, 10 µM for input CCc1onc(C)c1C(=O)NC(Cc1ccsc1)c1nccs1 (centres unmarked) , no commentary.
94

Give a short answer stating reported viability at 28.5 h, 10 µM for CC[C@@H](Cn1ncc2ccccc2c1=O)NC(=O)CC1c2ccccc2Oc2ccccc21 .
89.5

Fill in reported viability at 28.5 h, 10 µM for this entry: CCn1cc(C2CN(S(=O)(=O)c3cccc(C(C)C)c3)CCO2)cn1 (centres unmarked)
105

Return viability at 28.5 h, 10 µM for the following molecule: COCCC(=O)Nc1ccc(N2CCNCC2)nc1 [CBK004749T]
92.2

Please give the documented viability at 28.5 h, 10 µM of O=C(c1ccccc1F)N1C[C@H](c2ccsc2)[C@H]2CN(Cc3ccccc3F)CC[C@H]21
97.4

// fetch viability at 28.5 h, 10 µM given entry COc1ccc(Cl)cc1NC(=O)Nc1ccc(C(=O)N2CCOCC2)cc1
87.1

Identify measured viability at 28.5 h, 10 µM associated with COC[C@@H]1CCCN1S(=O)(=O)c1ccc(OC(F)(F)F)cc1
92.4

Provide viability at 28.5 h, 10 µM value for the following molecule: O=C(Nc1nc2ccccc2s1)c1cccnc1Cl
108

Note viability at 28.5 h, 10 µM for the molecule shown: Fc1ccc(OCc2nnn[nH]2)c(F)c1
99.9

Please report viability at 28.5 h, 10 µM for the following molecule: O=S(=O)(c1ccc(-c2cncc(-c3ccc(O)cc3)n2)cc1)N1CCOCC1
84.6

Output viability at 28.5 h, 10 µM of O=C(Cc1ccccc1F)N1CCCC(c2cnccn2)C1 (centres unmarked)
96.8

---

Assay: in vitro
Details: human, hela cells, % viability
Parameter: viability at 28.5 h, 10 µM

Report viability at 28.5 h, 10 µM, nothing else, for this compound: CCCCc1ccc(-c2nccn2CC2CN(C(C)=O)CCO2)s1 (stereo not drawn)
110%

Give the reported value of viability at 28.5 h, 10 µM for this record: CC(=O)NC[C@H]1CN(c2ccc3c(c2)CCN(C(=O)Oc2ccccc2)CC3)C(=O)O1
91.2%

Note viability at 28.5 h, 10 µM for the compound shown: O=C(CCN1CCCCC1)Nc1ccc2c(=O)n3c(nc2c1)/C(=C/c1ccccc1)CC3
94.1%

Give the measured viability at 28.5 h, 10 µM for CC(=O)Nc1sc2c(c1C(=O)O)CCc1ccccc1-2
96.9%

Tell me measured viability at 28.5 h, 10 µM for Cc1nn(C)c(Cl)c1S(=O)(=O)Nc1cc(N2CCN(C(=O)OC(C)(C)C)CC2)c2occc2c1 please.
95.8%

Given CC(=O)Nc1ccccc1NC(=O)c1ccccc1CCc1ccccc1 , respond with its viability at 28.5 h, 10 µM.
97.1%

Supply measured viability at 28.5 h, 10 µM of CN1CCN(c2cc(N3CCN(C(=O)c4ccc(F)cc4F)CC3)c([N+](=O)[O-])cc2F)CC1 in your reply.
95.1%

Give the value of viability at 28.5 h, 10 µM reported for the following: COc1cc(CNc2cc(-c3ccsc3)ncn2)cc(OC)c1OC
92%

Report viability at 28.5 h, 10 µM, nothing else, for this compound: COc1ccc([C@@]23CC[C@@H](C(=O)Nc4ccc(C(F)(F)F)cn4)C[C@@H]2N(C)CC3)cc1OC [CBK046310T]
87.3%

---

Assay: in vitro
Details: human, hela cells, % viability
Parameter: viability at 28.5 h, 10 µM (%)
Kindly provide the numeric value in % only, without the unit symbol.

Give the reported viability at 28.5 h, 10 µM for this molecule. Cc1ccc(S(=O)(=O)Nc2sccc2C(=O)O)cc1
98.6

Report viability at 28.5 h, 10 µM, nothing else, for this molecule: CC(NC(=O)C1CCN(Cc2ccc(Oc3ccccc3)cc2)CC1)c1ccccc1 (stereo not drawn)
107

Give me measured viability at 28.5 h, 10 µM, please, for this molecule: CCOC(=O)Cn1c(CN2CCCCC2C)nc2c1c(=O)n(C)c(=O)n2C (stereo not drawn)
95.1

Return reported viability at 28.5 h, 10 µM. Input molecule: O=C(O)c1ccccc1NS(=O)(=O)/C=C/c1ccccc1
102

Output measured viability at 28.5 h, 10 µM for this item: COc1ccc(CN(C)C(=O)CCc2c(C)nc3c(cnn3C(C)C)c2C)cc1
80.6

Quick one: give measured viability at 28.5 h, 10 µM for CC(CC(=O)O)n1nnc2ccccc21 (stereo not drawn)
113

Supply viability at 28.5 h, 10 µM value. Item: COc1cc(NS(=O)(=O)c2ccc(NC(=O)c3c(C)noc3C)cc2)nc(OC)n1
103

State its viability at 28.5 h, 10 µM: COC(=O)c1ccc(NS(=O)(=O)Cc2ccccc2)cc1
91.4

Consider the molecule COC(=O)c1sc2ncccc2c1NS(=O)(=O)c1ccc(C(F)(F)F)cc1[N+](=O)[O-] . State its measured viability at 28.5 h, 10 µM.
95.4

---

Exercise: state measured viability at 28.5 h, 10 µM for each of the compounds provided.
Test: in vitro
Details: human, hela cells, % viability
Record the value in %, omitting the unit from your answer.

Assign viability at 28.5 h, 10 µM to the following record: Cc1ccc(S(=O)(=O)NCCSc2nnc(Nc3ccccc3)s2)cc1
106

Provide viability at 28.5 h, 10 µM value for the following compound: Cc1cc(O)cc(O)c1/C=N\NC(=O)C1COc2cc3ccccc3cc2O1 (centres unmarked)
80.4

Determine its reported viability at 28.5 h, 10 µM: COc1ccc(C2N(Cc3ccccc3)CCN2Cc2ccccc2)c(OC)c1OC
104

Determine its reported viability at 28.5 h, 10 µM: O=C(CSCc1ccc(Br)cc1)NCC1CCCO1 (centres unmarked)
87.3

Give a short answer stating reported viability at 28.5 h, 10 µM for Cc1nc2nc(N)nn2c(C)c1CCC(=O)NCCc1ccccc1 .
89.5

Using known records, supply viability at 28.5 h, 10 µM for O=C(O)CC(C(=O)Nc1ccccc1)N1CCOCC1 (centres unmarked)
94.8

Query viability at 28.5 h, 10 µM for CCCCS(=O)(=O)N1CCN(CCc2ccccc2)CC1
87.3

Note viability at 28.5 h, 10 µM for the compound shown: CSCc1nc(CS(=O)(=O)Cc2cccc(C(F)(F)F)c2)no1
87.8

Give the measured viability at 28.5 h, 10 µM for Cc1cc(-c2ccccc2)sc1C(=O)/C=C(\O)C(=O)O
100

Name the recorded viability at 28.5 h, 10 µM of the item CN1CCN(c2ccc(/C=c3\sc4nc5ccccc5n4c3=O)cc2[N+](=O)[O-])CC1 in your answer.
89.3

Complete the entry with viability at 28.5 h, 10 µM for O=C(N/N=C\c1ccccc1O)c1nc([N+](=O)[O-])n[nH]1
99.8

Provide one value: measured viability at 28.5 h, 10 µM of Cc1ccnc(Nc2nc3ccccc3o2)n1
87.5

Name the recorded viability at 28.5 h, 10 µM of the compound listed here: Cc1cc(C)c(NC(=O)C2CCCN2CCCN(C)C)c(C)c1 (centres unmarked) [CBK278172F]
97.1

Kindly indicate its recorded viability at 28.5 h, 10 µM. Item: CC1CN(Cc2nc3c(c(=O)n(C)c(=O)n3C)n2CCCO)CC(C)O1 (centres unmarked)
99

Return viability at 28.5 h, 10 µM for the following compound: Nc1nc(CSc2nnc(Cc3ccc([N+](=O)[O-])cc3)n2-c2ccccc2)cs1
93.5

Consider the compound COc1ccc(CC(=O)N2CCC(c3cc4cnccc4[nH]3)CC2)cc1 . State its measured viability at 28.5 h, 10 µM.
87.2

Specify measured viability at 28.5 h, 10 µM for O=C1COc2ccccc2C/C=C/CC2(CCCN(C(=O)CN3CSCC3=O)C2)CN1 (centres unmarked) .
116

Give the measured viability at 28.5 h, 10 µM for COc1ccc(CCNC(=O)c2nc3ncccn3n2)cc1OC
90.4

Find the measured viability at 28.5 h, 10 µM of COc1ccccc1CC(C)NC(=O)CCn1ccc2ccncc21 (centres unmarked) and report it.
93.8

Give recorded viability at 28.5 h, 10 µM. CCOC(=O)c1cccc(NS(=O)(=O)c2ccc(NC(C)=O)cc2)c1
78.8
